Would you kindly list Lym for each of these compounds?
# Species: Rattus norvegicus
# assay_info: Open TG-GATES - Regimen: Daily Repeat
# Type: toxicity, organism-based, Sprague-Dawley
# Parameters: regimen Daily Repeat, gender Male, age 6 weeks
# test_conditions: in vivo, po, 300 mg/kg, […], tissue Blood, route gavage, dose level Middle, time 14 day
Report the figure in % without appending any unit label.

Annotate the compound `Cc1nnc2n1-c1ccc(Cl)cc1C(c1ccccc1Cl)=NC2` with its measured Lym.
76

Annotate the compound `O=C(OC[C@H]1O[C@@H](OC(=O)c2cc(O)c(O)c(OC(=O)c3cc(O)c(O)c(O)c3)c2)[C@H](OC(=O)c2cc(O)c(O)c(OC(=O)c3cc(O)c(O)c(O)c3)c2)[C@@H](OC(=O)c2cc(O)c(O)c(OC(=O)c3cc(O)c(O)c(O)c3)c2)[C@@H]1OC(=O)c1cc(O)c(O)c(OC(=O)c2cc(O)c(O)c(O)c2)c1)c1cc(O)c(O)c(OC(=O)c2cc(O)c(O)c(O)c2)c1` with its measured Lym.
75.4
